# System: blood stream T. brucei strain 427
# EXPERIMENTAL_DETAILS: Cultured bloodstream T. brucei growth/viability, parasites counted with a haemocytometer
# Type: cell-based, Trypanosoma brucei
# REPORTED_CONDITIONS: blood stream T. brucei strain 427 seeded at 10^4 cells/ml, 37° C. for 40 hours; read-out: IC50
RECORDED_METRIC: IC50

According to the records, this compound COc1cc2ncnc(Nc3cccc(Cl)c3)c2cc1OC [Tyrphostin AG1478] displays IC50 of 2.5 to 5 µM

====

# Test system: blood stream T. brucei strain 427
# EXPERIMENTAL_DETAILS: Cultured bloodstream T. brucei growth/viability, parasites counted with a haemocytometer
# Assay type: cell-based, Trypanosoma brucei
# REPORTED_CONDITIONS: Trypanosoma brucei; blood stream T. brucei strain 427 seeded at 10^4 cells/ml, 37° C. for 40 hours; read-out: IC50
RECORDED_METRIC: IC50 (nM)
Report as a plain number; the unit nM is understood.

Looking up "C=CC(=O)Nc1cc2c(Nc3ccc(F)c(Cl)c3)ncnc2cc1OCCCN1CCOCC1" , I see its IC50 listed as 1000

These entries and their values trace back to patent US9545410B2.
